- test-system: T1, AfPiwi (UniProt O28951 1-427)
- T1 sequence: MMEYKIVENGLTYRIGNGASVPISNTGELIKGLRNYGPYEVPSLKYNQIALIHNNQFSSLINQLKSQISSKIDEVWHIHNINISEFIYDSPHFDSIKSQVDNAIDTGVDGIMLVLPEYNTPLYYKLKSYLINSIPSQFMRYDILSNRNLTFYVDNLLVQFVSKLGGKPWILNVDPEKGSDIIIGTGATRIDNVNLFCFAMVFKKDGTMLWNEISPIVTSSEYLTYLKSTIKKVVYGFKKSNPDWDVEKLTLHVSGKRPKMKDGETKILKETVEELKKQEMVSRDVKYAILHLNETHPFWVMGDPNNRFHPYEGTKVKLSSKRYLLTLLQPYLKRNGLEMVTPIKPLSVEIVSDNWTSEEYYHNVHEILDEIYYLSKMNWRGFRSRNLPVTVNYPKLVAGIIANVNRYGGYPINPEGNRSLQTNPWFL
- experiment: ITC; target into AfPiwi-guide; 10 mM Mg2+; isolation 794 nM; ITC: 50 mM Tris pH 7.5, 150 mM KCl, 5% glycerol, 10 mM MgCl2, 1 mM DTT, 20 C; guide 3.5-24 uM in cell with 3-4 fold excess AfPiwi, target in syringe
- condition: protein: recombinant; A:G mismatch at guide position 4
recorded-endpoint: pKd
Scale: pKd equals -log10([C]), with [C] in mol/L.

[Q] Any idea what its pKd is? The binder is Fig 5A RNA A:G mismatch at position 4 (dsRNA, guide 5' phosphate) RNA 1: UGUAGGUU RNA 2: AACCGACA
[A] 5.94

Data provenance is paper PMC2642989.
